Please provide measured mortality at 1 h for the entries that follow.
# measurement-notes: Acute toxicity, oral, mice
# Set-up: species or system SlC:ddy male mice
# experimental-setup: mouse, in vivo; 800 mg/kg oral, 1 hr; read-out: Number of dead mice per 10 mice
Give just the numeric value; % need not be written.

Entry CC(C)CC(N(C)C)C1(c2ccc(Cl)cc2)CCC1.Cl (centres unmarked) [Test compound, hydrochloride] , mortality at 1 h reported as 50

Entry CNCCCN1c2ccccc2CCc2ccccc21 [Desipramine, desipramine] , mortality at 1 h reported as 100

====

# Tested on: re-uptake of ^3 H-dopamine
# measurement-notes: Re-uptake of 3H-dopamine in vitro (synaptosomes, P2 fraction of whole brain)
# Format: biochemical, Std: Wistar strain male rat
# experimental-setup: Experiment II, rat brain synaptosomes, 37° C., 20 minutes
# Procedure: Effect of the test samples on the re-uptake of ^3 H-dopamine in vitro P2 fraction was prepared from the whole brain of Std: Wistar strain male rat. […] The obtained mixture was incubated at 37° C. for 20 minutes and then subjected to the suction filtration with Whatman GF/B filter paper. The obtained filter paper was put in a vial containing 10 ml of toluene type scintillator and its radioactivity was measured by means of liquid scintillation counter. […]
measured-attribute: IC50

Entry CN(C)CCCN1c2ccccc2CCc2ccccc21 , IC50 reported as 15 µM

Entry CN(C)CCC=C1c2ccccc2CCc2ccccc21 , IC50 reported as 8.2 µM
